Data origin: patent US20180002319A1

System: Alternaria solani
Assay: Tomato Early Blight (ALTESO) fungicidal activity
Format: in vivo
Conditions: 24 h, 1DP (1 Day Protectant), read-out: ALTESO Disease Control
Protocol: Technical grades of materials were dissolved in acetone, which were then mixed with nine volumes of H2O containing 110 ppm Triton X-100. The fungicide solutions were applied onto wheat seedlings using an automated booth sprayer to run-off. […] All fungicides were evaluated using the aforementioned method for their activity vs. all target diseases, unless stated otherwise. […] Percent disease control was calculated using the ratio of disease severity on treated plants relative to untreated plants. […]
Reported values of pest or weed control at 100 ppm for individual entries
observedProperty: pest or weed control at 100 ppm

CCCCCO[C@H]1[C@H](C)OC(=O)[C@@H](NC(=O)c2nccc(OC)c2OCOC(C)=O)CCCC[C@@H]1Oc1ccccc1	> 80%
CCCCO[C@H]1CCOC[C@H](NC(=O)c2nccc(OC)c2OCOC(C)=O)C(=O)O[C@@H](C)[C@@H]1OC(=O)c1ccccc1	> 80%
COc1ccnc(C(=O)N[C@H]2COCC[C@H](Cc3ccccc3)[C@@H](OCC(C)C)[C@H](C)OC2=O)c1OCOC(C)=O	> 80%
COc1ccnc(C(=O)N[C@H]2COCC[C@@H](OCC(C)C)[C@@H](OCC(C)C)[C@H](C)OC2=O)c1OCOC(C)=O	< 80%

* * *

system: Erysiphe cichoracearum; experiment: Powdery Mildew of Cucumber (ERYSCI) fungicidal activity; format: in vivo; conditions: Golovinomyces cichoracearum, 24 h, 1DP (1 Day Protectant), read-out: ERYSCI Disease Control
Reported values of pest or weed control at 100 ppm for individual entries
observedProperty: pest or weed control at 100 ppm

CCCO[C@H]1[C@H](C)OC(=O)[C@@H](NC(=O)c2nccc(OC)c2OCOC(C)=O)CCCC[C@@H]1Oc1ccccc1 [Compound 18]	< 80%
COc1ccnc(C(=O)N[C@H]2COCC[C@H](Cc3ccccc3)[C@@H](OCC(C)C)[C@H](C)OC2=O)c1OC(C)=O [Compound 21]	< 80%
COc1ccnc(C(=O)N[C@H]2COCC[C@H](Cc3ccccc3)[C@@H](OCC(C)C)[C@H](C)OC2=O)c1OCOC(C)=O [Compound 20]	< 80%
COc1ccnc(C(=O)N[C@H]2CCCC[C@H](Oc3ccccc3)[C@@H](Oc3ccccc3)[C@H](C)OC2=O)c1OCOC(C)=O [Compound 19]	< 80%
CCCCO[C@H]1CCOC[C@H](NC(=O)c2nccc(OC)c2OCOC(C)=O)C(=O)O[C@@H](C)[C@@H]1OCc1ccccc1 [Compound 2]	< 80%
CCCCCO[C@H]1[C@H](C)OC(=O)[C@@H](NC(=O)c2nccc(OC)c2OCOC(C)=O)CCCC[C@@H]1Oc1ccccc1 [Compound 17]	< 80%

* * *

tested on: Zymoseptoria tritici; test: Leaf Blotch of Wheat (SEPTTR) fungicidal activity; assay type: in vivo; details: 72 h, Low Volume application, 121.5 g/H, wheat leaf blotch, 3 day curative, read-out: SEPTTR disease control, 3DC (3 Day Curative)
Reported values of pest or weed control at 121.5 g/ha for individual entries
observedProperty: pest or weed control at 121.5 g/ha

COc1ccnc(C(=O)N[C@H]2CCCC[C@@H]3OC(C)(C)O[C@H]3[C@H](C)OC2=O)c1OC(C)=O [Compound 29]	> 80%
COc1ccnc(C(=O)N[C@H]2CCOC[C@H](OC(=O)C(C)C)[C@@H](Oc3ccccc3)[C@H](C)OC2=O)c1OCOC(C)=O [Compound 44]	< 80%
COc1ccnc(C(=O)N[C@H]2CCCC[C@H](CC3CCCC3)[C@@H](Oc3ccccc3)[C@H](C)OC2=O)c1OCOC(C)=O [Compound 50]	< 80%
COc1ccc(C[C@H]2CCOC[C@H](NC(=O)c3nccc(OC)c3OC(C)=O)C(=O)O[C@@H](C)[C@@H]2Oc2ccccc2)cc1 [Compound 65]	< 80%
COc1ccnc(C(=O)N[C@H]2CCOC[C@H](OCC(C)C)[C@@H](Oc3ccccc3)[C@H](C)OC2=O)c1OCOC(C)=O [Compound 45]	> 80%
CCCO[C@H]1CCCC[C@H](NC(=O)c2nccc(OC)c2OCOC(C)=O)C(=O)O[C@@H](C)[C@@H]1Oc1ccccc1 [Compound 23]	> 80%
COc1ccnc(C(=O)N[C@H]2CCCC[C@H](CC3CCCC3)[C@@H](OC)[C@H](C)OC2=O)c1OCOC(C)=O [Compound 61]	< 80%
CCCO[C@H]1[C@H](C)OC(=O)[C@@H](NC(=O)c2nccc(OC)c2OCOC(C)=O)CCOC[C@@H]1Oc1ccccc1 [Compound 42]	< 80%
COc1ccnc(C(=O)N[C@H]2COCC[C@H](Cc3ccc(F)cc3)[C@@H](OCC3CC3)[C@H](C)OC2=O)c1OC(C)=O [Compound 77]	< 80%
COc1ccnc(C(=O)N[C@H]2CCCC[C@H](Cc3ccccc3)[C@@H](OC(=O)C(C)C)[C@H](C)OC2=O)c1OCOC(C)=O [Compound 60]	> 80%
CC[C@H]1CCOC[C@H](NC(=O)c2nccc(OC)c2OCOC(C)=O)C(=O)O[C@@H](C)[C@@H]1Oc1ccccc1 [Compound 69]	> 80%
COc1ccnc(C(=O)N[C@H]2CCOC[C@H](Cc3ccccc3)[C@@H](OCC(C)C)[C@H](C)OC2=O)c1OCOC(C)=O [Compound 16]	< 80%
CCCO[C@H]1COCC[C@H](NC(=O)c2nccc(OC)c2OCOC(C)=O)C(=O)O[C@@H](C)[C@@H]1Oc1ccccc1 [Compound 41]	> 80%

* * *

system: Zymoseptoria tritici; assay: Leaf Blotch of Wheat (SEPTTR) fungicidal activity; type: in vivo; details: 72 h, Low Volume application, 121.5 g/H, wheat leaf blotch, 3 day curative, read-out: SEPTTR disease control, 3DC (3 Day Curative)
Reported values of pest or weed control at 121.5 g/ha for individual entries
observedProperty: pest or weed control at 121.5 g/ha

COc1ccnc(C(=O)N[C@H]2COCC[C@H](Cc3ccc(F)cc3)[C@@H](OC(=O)C(C)C)[C@H](C)OC2=O)c1OC(C)=O	< 80%
COc1ccnc(C(=O)N[C@H]2CCCC[C@H](OCC(C)C)[C@@H](Oc3ccccc3)[C@H](C)OC2=O)c1OCOC(C)=O	> 80%
COc1ccnc(C(=O)N[C@H]2CCOC[C@H](Oc3ccccc3)[C@@H](OCC(C)C)[C@H](C)OC2=O)c1OCOC(C)=O	< 80%
COc1ccnc(C(=O)N[C@H]2COCC[C@H](Cc3ccc(F)cc3)[C@@H](Oc3ccccc3)[C@H](C)OC2=O)c1OCOC(=O)C(C)C	> 80%
CCCO[C@@H]1[C@@H](CC2CCCC2)CCCC[C@H](NC(=O)c2nccc(OC)c2OC(C)=O)C(=O)O[C@H]1C	< 80%
COc1ccc(C[C@H]2CCOC[C@H](NC(=O)c3nccc(OC)c3OC(=O)C(C)C)C(=O)O[C@@H](C)[C@@H]2Oc2ccccc2)cc1	< 80%

* * *

Reported values of pest or weed control at 100 ppm for individual entries
tested on: Alternaria solani; test: Tomato Early Blight (ALTESO) fungicidal activity; format: in vivo; settings: 24 h, 1DP (1 Day Protectant), read-out: ALTESO Disease Control
observedProperty: pest or weed control at 100 ppm

CCCO[C@H]1[C@H](C)OC(=O)[C@@H](NC(=O)c2nccc(OC)c2OCOC(C)=O)CCCC[C@@H]1Oc1ccccc1 [Compound 18]	> 80%
CCCCO[C@H]1CCOC[C@H](NC(=O)c2nccc(OC)c2OCOC(C)=O)C(=O)O[C@@H](C)[C@@H]1OCc1ccccc1 [Compound 2]	< 80%
COc1ccnc(C(=O)N[C@H]2CCCC[C@H](Oc3ccccc3)[C@@H](Oc3ccccc3)[C@H](C)OC2=O)c1OCOC(C)=O [Compound 19]	> 80%
CCCCO[C@H]1CCOC[C@H](NC(=O)c2nccc(OC)c2OCOC(C)=O)C(=O)O[C@@H](C)[C@@H]1OC(=O)C(C)C [Compound 3]	> 80%
CCCCO[C@H]1CCOC[C@H](NC(=O)c2nccc(OC)c2OCOC(C)=O)C(=O)O[C@@H](C)[C@@H]1OC(=O)C1CC1 [Compound 5]	< 80%
COc1ccnc(C(=O)N[C@H]2COCC[C@H](Cc3ccccc3)[C@@H](OCC(C)C)[C@H](C)OC2=O)c1OC(C)=O [Compound 21]	> 80%

* * *

tested on: Zymoseptoria tritici; test: Leaf Blotch of Wheat (SEPTTR) fungicidal activity; type: in vivo; conditions: 72 h, Low Volume application, 121.5 g/H, wheat leaf blotch, 3 day curative, read-out: SEPTTR disease control, 3DC (3 Day Curative)
Reported values of pest or weed control at 121.5 g/ha for individual entries
observedProperty: pest or weed control at 121.5 g/ha

COc1ccnc(C(=O)N[C@H]2COCC[C@H](Cc3ccc(F)cc3)[C@@H](Oc3ccccc3)[C@H](C)OC2=O)c1OC(C)=O	> 80%
COc1ccc(C[C@H]2CCOC[C@H](NC(=O)c3nccc(OC)c3OCOC(C)=O)C(=O)O[C@@H](C)[C@@H]2Oc2ccccc2)cc1	> 80%
COc1ccnc(C(=O)N[C@H]2COCC[C@H](Cc3ccccc3)[C@@H](OCC(C)C)[C@H](C)OC2=O)c1OCOC(C)=O	> 80%
COc1ccnc(C(=O)N[C@H]2CCOC[C@H](Oc3ccccc3)[C@@H](Oc3ccccc3)[C@H](C)OC2=O)c1OCOC(C)=O	> 80%
CCCO[C@H]1CCCC[C@H](NC(=O)c2nccc(OC)c2OC(C)=O)C(=O)O[C@@H](C)[C@@H]1Oc1ccccc1	> 80%
COc1ccnc(C(=O)N[C@H]2CCCC[C@H](OCC(C)C)[C@@H](OCC(C)C)[C@H](C)OC2=O)c1OCOC(C)=O	< 80%
COc1ccnc(C(=O)N[C@H]2CCOC[C@H](Oc3ccccc3)[C@@H](Oc3ccccc3)[C@H](C)OC2=O)c1OC(C)=O	> 80%
COc1ccnc(C(=O)N[C@H]2COCC[C@H](Cc3ccc(F)cc3)[C@@H](OCC3CC3)[C@H](C)OC2=O)c1OCOC(C)=O	< 80%
COc1ccc(C[C@H]2CCOC[C@H](NC(=O)c3nccc(OC)c3OCOC(=O)C(C)C)C(=O)O[C@@H](C)[C@@H]2Oc2ccccc2)cc1	< 80%
COc1ccnc(C(=O)N[C@H]2CCCC[C@@H]3OC(C)(C)O[C@H]3[C@H](C)OC2=O)c1OCOC(C)=O	> 80%
COc1ccnc(C(=O)N[C@H]2CCCC[C@H](Oc3ccccc3)[C@@H](OC3CCCC3)[C@H](C)OC2=O)c1OCOC(C)=O	< 80%
COc1ccnc(C(=O)N[C@H]2CCCC[C@H](Oc3ccccc3)[C@@H](Oc3ccccc3)[C@H](C)OC2=O)c1OCOC(C)=O	> 80%
COc1ccc(CO[C@H]2[C@H](C)OC(=O)[C@@H](NC(=O)c3nccc(OC)c3OCOC(C)=O)CCOC[C@@H]2OCc2ccc(OC)cc2)cc1	< 80%
CCOCC(=O)OCOc1c(OC)ccnc1C(=O)N[C@H]1CCCC[C@H](CC2CCCC2)[C@@H](OC(=O)C(C)C)[C@H](C)OC1=O	< 80%
CC[C@H]1CCOC[C@H](NC(=O)c2nccc(OC)c2OC(C)=O)C(=O)O[C@@H](C)[C@@H]1OC(=O)c1ccccc1	< 80%
COc1ccnc(C(=O)N[C@H]2CCCC[C@H](OCc3ccccc3)[C@@H](OCc3ccccc3)[C@H](C)OC2=O)c1OC(C)=O	> 80%
COc1ccnc(C(=O)N[C@H]2CCCC[C@H](Cc3ccccc3)[C@@H](Oc3ccccc3)[C@H](C)OC2=O)c1OC(C)=O	> 80%
COc1ccnc(C(=O)N[C@H]2CCCC[C@H](Cc3ccccc3)[C@@H](OCC(C)C)[C@H](C)OC2=O)c1OCOC(C)=O	> 80%
COc1ccnc(C(=O)N[C@H]2CCCC[C@H](OCc3ccccc3)[C@@H](OCc3ccccc3)[C@H](C)OC2=O)c1OCOC(C)=O	> 80%
COc1ccnc(C(=O)N[C@H]2COCC[C@H](Cc3ccc(F)cc3)[C@@H](Oc3ccccc3)[C@H](C)OC2=O)c1OCOC(C)=O	> 80%
COc1ccnc(C(=O)N[C@H]2COCC[C@H](OCc3ccccc3)[C@@H](OCc3ccccc3)[C@H](C)OC2=O)c1OCOC(C)=O	< 80%
CCOCC(=O)OCOc1c(OC)ccnc1C(=O)N[C@H]1COCC[C@H](Cc2ccc(F)cc2)[C@@H](OCC2CC2)[C@H](C)OC1=O	< 80%
COc1ccnc(C(=O)N[C@H]2CCOC[C@H](OC)[C@@H](Oc3ccccc3)[C@H](C)OC2=O)c1OCOC(C)=O	> 80%
COc1ccnc(C(=O)N[C@H]2CCCC[C@H](OC)[C@@H](Oc3ccccc3)[C@H](C)OC2=O)c1OCOC(C)=O	> 80%
COc1ccnc(C(=O)N[C@H]2CCCC[C@H](OC)[C@@H](OC3CCCC3)[C@H](C)OC2=O)c1OCOC(C)=O	> 80%
